pKi: −log10 of the molar value.
Values of pKi for Vascular endothelial growth factor receptor 2 (Homo sapiens), collected from a number of published sources:

NC(=O)[C@@H]1[C@H](Nc2nc(Nc3cnn(Cc4ccc(Cl)cc4)c3)ncc2Br)[C@H]2C=C[C@@H]1C2 : > 7.00
CC(=O)N1[C@H](C)CN(c2cc(-n3cnc(Nc4ccc(N)cc4)n3)ccn2)C[C@@H]1C : > 7.00
NC(=O)[C@@H]1[C@H](Nc2nc(Nc3cnn([C@@H]4CCOC4)c3)ncc2Br)[C@H]2C=C[C@@H]1C2 : > 7.00

Known value: Vascular endothelial growth factor receptor 2 (Homo sapiens) pKi of the molecule COc1ccc(Cn2cc(Nc3ncc(Cl)c(N[C@H]4[C@@H](C(N)=O)[C@@H]5C=C[C@H]4C5)n3)cn2)cc1F equals > 7.00

Known value: Vascular endothelial growth factor receptor 2 (Homo sapiens) pKi of the molecule Fc1cccc(-c2cnoc2-c2c[nH]c3ncccc23)c1F equals 4.90 to 6.00

Known value: Vascular endothelial growth factor receptor 2 (Homo sapiens) pKi of the molecule CN1CCN(c2ccc(-c3cnc4[nH]cc(-c5nncn5-c5cccc(F)c5F)c4c3)cc2)CC1 equals 6.00 to 6.70

Known value: Vascular endothelial growth factor receptor 2 (Homo sapiens) pKi of the molecule CN(C)CC#Cc1cnc2[nH]cc(-c3oncc3-c3cccc(F)c3F)c2c1 equals 6.00 to 6.70

====

Values of Ki for Vascular endothelial growth factor receptor 2 (Homo sapiens), collected from a number of published sources:

Look over these answered cases.
CC(=O)N1CCCN(c2cc(-n3cnc(Nc4ccccc4)n3)ccn2)CC1 : 100 to 1000 nM
OCc1cnc2[nH]cc(-c3oncc3-c3cccc(F)c3F)c2c1 : 200 to 1000 nM
CCCNC(=O)Nc1ccc(Nc2ncn(-c3ccnc(N4C[C@@H](C)N(C(C)=O)[C@@H](C)C4)c3)n2)cc1 : < 100 nM
OB(O)c1cnc2[nH]cc(-c3oncc3-c3cccc(F)c3F)c2c1 : < 200 nM
NC(=O)[C@@H]1[C@H](Nc2nc(Nc3cnn(C[C@@H](O)CO)c3)ncc2Cl)[C@H]2C=C[C@@H]1C2 : < 100 nM

Known value: Vascular endothelial growth factor receptor 2 (Homo sapiens) Ki of the molecule NC(=O)[C@@H]1[C@H](Nc2nc(Nc3cnn(Cc4ccccc4)c3)ncc2Br)[C@H]2C=C[C@@H]1C2 equals < 100 nM

====

pKi: −log10 of the molar value.
Values of pKi for Vascular endothelial growth factor receptor 2 (Homo sapiens, UniProt P35968), collected from a number of published sources:

NC(=O)[C@@H]1[C@H](Nc2nc(Nc3cnn(CC4CCO4)c3)ncc2Cl)[C@H]2C=C[C@@H]1C2 (some centres unmarked) : > 7.00

Known value: Vascular endothelial growth factor receptor 2 (Homo sapiens, UniProt P35968) pKi of the molecule CN(C)Cc1ccc(-c2cnc3[nH]cc(-c4oncc4-c4cccc(F)c4F)c3c2)nc1 equals > 6.70

Known value: Vascular endothelial growth factor receptor 2 (Homo sapiens, UniProt P35968) pKi of the molecule CN(C)CCCN(C)c1cc(-n2cnc(Nc3ccccc3)n2)ccn1 equals 6.00 to 7.00

Known value: Vascular endothelial growth factor receptor 2 (Homo sapiens, UniProt P35968) pKi of the molecule CNC(=O)Cn1cc(Nc2ncc(Cl)c(NC3C4CCC(C4)C3C(N)=O)n2)cn1 (racemic) equals > 7.00

Known value: Vascular endothelial growth factor receptor 2 (Homo sapiens, UniProt P35968) pKi of the molecule Fc1ccc(-c2cnc3[nH]cc(-c4oncc4-c4cccc(F)c4F)c3c2)cn1 equals > 6.70

Known value: Vascular endothelial growth factor receptor 2 (Homo sapiens, UniProt P35968) pKi of the molecule NC(=O)[C@@H]1[C@H](Nc2nc(Nc3cnn([C@H]4CCOC4)c3)ncc2Br)[C@H]2C=C[C@@H]1C2 equals > 7.00

Known value: Vascular endothelial growth factor receptor 2 (Homo sapiens, UniProt P35968) pKi of the molecule N#CCC(=O)N1CCCN(c2cc(-n3cnc(Nc4ccccc4)n3)ccn2)CC1 equals 6.00 to 7.00

Known value: Vascular endothelial growth factor receptor 2 (Homo sapiens, UniProt P35968) pKi of the molecule CC(=O)N1CCC(n2cc(Nc3ncc(Cl)c(N[C@H]4[C@@H](C(N)=O)[C@@H]5C=C[C@H]4C5)n3)cn2)CC1 equals > 7.00

====

Values of Ki for Vascular endothelial growth factor receptor 2 (Homo sapiens, UniProt P35968), collected from a number of published sources:

Look over these answered cases.
c1ccc(-n2cnc(Nc3ccc(N4CCOCC4)cc3)n2)cc1 : 100 to 1000 nM
CC1(C)[C@H]2C[C@H](C(N)=O)[C@H](Nc3nc(Nc4cnn(C5CCNCC5)c4)ncc3Cl)[C@@H]1C2 : < 100 nM
c1ccc(-c2cnoc2-c2c[nH]c3ncccc23)cc1 : 200 to 1000 nM

Known value: Vascular endothelial growth factor receptor 2 (Homo sapiens, UniProt P35968) Ki of the compound CCn1cc(Nc2ncc(C(F)(F)F)c(N[C@H]3[C@@H](C(N)=O)C[C@H]4C[C@@H]3C4(C)C)n2)cn1 equals < 100 nM

Known value: Vascular endothelial growth factor receptor 2 (Homo sapiens, UniProt P35968) Ki of the compound CN(CCO)c1cc(-n2cnc(Nc3ccccc3)n2)ccn1 equals < 100 nM

Known value: Vascular endothelial growth factor receptor 2 (Homo sapiens, UniProt P35968) Ki of the compound CCn1cc(Nc2ncc(Cl)c(N[C@H]3[C@@H](C(N)=O)C[C@H]4C[C@@H]3C4(C)C)n2)cn1 equals < 100 nM

Known value: Vascular endothelial growth factor receptor 2 (Homo sapiens, UniProt P35968) Ki of the compound NC(=O)[C@@H]1[C@H](Nc2nc(Nc3cnn(Cc4cccc(Cl)c4)c3)ncc2Cl)[C@H]2C=C[C@@H]1C2 equals < 100 nM

Known value: Vascular endothelial growth factor receptor 2 (Homo sapiens, UniProt P35968) Ki of the compound CN(C)CC(=O)N1CCC(n2cc(Nc3ncc(Cl)c(N[C@H]4[C@@H](C(N)=O)[C@@H]5C=C[C@H]4C5)n3)cn2)CC1 equals < 100 nM

====

pKi: −log10 of the molar value.
Values of pKi for Vascular endothelial growth factor receptor 2 (Homo sapiens), collected from a number of published sources:

Look over these answered cases.
O=C(Cc1ccccc1)Nc1cc(-n2cnc(Nc3ccccc3)n2)ccn1 : 6.00 to 7.00
CN1CCN(c2ccc(-c3cnc4[nH]cc(-c5nncn5-c5cccc(F)c5F)c4c3)cn2)CC1 : 6.00 to 6.70
NC(=O)[C@@H]1[C@H](Nc2nc(Nc3cnn(Cc4ccccc4Cl)c3)ncc2Cl)[C@H]2C=C[C@@H]1C2 : > 7.00
Cc1nn(C)c(C)c1Nc1ncc(Cl)c(N[C@H]2[C@@H](C(N)=O)[C@@H]3C=C[C@H]2C3)n1 : 6.00 to 7.00
CCn1cc(Nc2ncc(Cl)c(N[C@H]3[C@@H](C(N)=O)[C@@H]4C=C[C@H]3C4)n2)cn1 (racemic) : > 7.00

The molecule identified as c1ccc(Nc2ncn(-c3ccnc(N4CCCCCC4)c3)n2)cc1 registered its pKi at > 7.00

The molecule identified as CN1CCN(CCn2cc(Nc3ncc(Cl)c(N[C@H]4[C@@H](C(N)=O)C[C@H]5C[C@@H]4C5(C)C)n3)cn2)CC1 registered its pKi at 6.00 to 7.00

The molecule identified as Cn1cc(Nc2ncc(C(F)(F)F)c(N[C@@H]3[C@@H]4CC[C@@H](C4)[C@@H]3C(N)=O)n2)cn1.Cn1cc(Nc2ncc(C(F)(F)F)c(N[C@H]3[C@H]4CC[C@H](C4)[C@H]3C(N)=O)n2)cn1 (mixture of isomers) registered its pKi at > 7.00

The molecule identified as Cn1cc(Nc2ncc(C(F)(F)F)c(N[C@H]3[C@@H](C(N)=O)C[C@H]4C[C@@H]3C4(C)C)n2)cn1 registered its pKi at > 7.00

The molecule identified as COc1cccc(Cn2cc(Nc3ncc(Br)c(N[C@H]4[C@@H](C(N)=O)[C@@H]5C=C[C@H]4C5)n3)cn2)c1 registered its pKi at > 7.00

The molecule identified as Cc1c(Nc2ncc(Cl)c(N[C@H]3[C@@H](C(N)=O)[C@@H]4C=C[C@H]3C4)n2)cnn1C registered its pKi at > 7.00

The molecule identified as O=c1ccc(-c2cnc3[nH]cc(-c4oncc4-c4cccc(F)c4F)c3c2)c[nH]1 registered its pKi at > 6.70

The molecule identified as CN1CCN(Cc2ccc(-c3cnc4[nH]cc(-c5oncc5-c5cccc(F)c5F)c4c3)cc2)CC1 registered its pKi at > 6.70

The molecule identified as CCCC(=O)N1CCCN(c2cc(-n3cnc(Nc4ccccc4)n3)ccn2)CC1 registered its pKi at < 6.00

The molecule identified as CC(C)OC(=O)Cn1cc(Nc2ncc(Cl)c(N[C@H]3[C@@H](C(N)=O)[C@@H]4C=C[C@H]3C4)n2)cn1 registered its pKi at > 7.00

The molecule identified as NC(=O)[C@@H]1[C@H](Nc2nc(Nc3cnn(CCO)c3)ncc2C(F)(F)F)[C@H]2C=C[C@@H]1C2.NC(=O)[C@H]1[C@@H](Nc2nc(Nc3cnn(CCO)c3)ncc2C(F)(F)F)[C@@H]2C=C[C@H]1C2 (mixture of isomers) registered its pKi at > 7.00

The molecule identified as CN(C)Cc1cc(Cl)nc(-c2cnc3[nH]cc(-c4oncc4-c4cccc(F)c4F)c3c2)c1 registered its pKi at > 6.70

The molecule identified as Cn1cc(Nc2ncc(Cl)c(Nc3ccc4[nH]ncc4c3)n2)cn1 registered its pKi at > 7.00

The molecule identified as Fc1cccnc1-c1cnc2[nH]cc(-c3oncc3-c3cccc(F)c3F)c2c1 registered its pKi at 4.90 to 6.00

The molecule identified as COCCOCCn1cc(Nc2ncc(Br)c(N[C@H]3[C@@H](C(N)=O)[C@@H]4C=C[C@H]3C4)n2)cn1 registered its pKi at > 7.00

The molecule identified as COCCN(C)c1cc(-n2cnc(Nc3ccccc3)n2)ccn1 registered its pKi at > 7.00

The molecule identified as CCn1cc(Nc2ncc([N+](=O)[O-])c(N[C@H]3[C@@H](C(N)=O)[C@@H]4C=C[C@H]3C4)n2)cn1 registered its pKi at > 7.00

The molecule identified as Cn1cc(Nc2ncc(C(F)(F)F)c(Nc3sccc3C(N)=O)n2)cn1 registered its pKi at 6.00 to 7.00

The molecule identified as COc1cccc(CCn2cc(Nc3ncc(Br)c(N[C@H]4[C@@H](C(N)=O)[C@@H]5C=C[C@H]4C5)n3)cn2)c1 registered its pKi at > 7.00

The molecule identified as NC(=O)Cn1cc(Nc2ncc(Cl)c(N[C@H]3[C@@H](C(N)=O)[C@@H]4C=C[C@H]3C4)n2)cn1 registered its pKi at > 7.00

The molecule identified as NC(=O)[C@@H]1[C@H](Nc2nc(Nc3cnn(C4CNC4)c3)ncc2Cl)[C@H]2C=C[C@@H]1C2 registered its pKi at > 7.00

The molecule identified as Cn1cc(Nc2ncc(C(F)(F)F)c(Nc3ccsc3C(N)=O)n2)cn1 registered its pKi at > 7.00

The molecule identified as COCCn1cc(Nc2ncc(Cl)c(N[C@H]3[C@@H](C(N)=O)[C@@H]4C=C[C@H]3C4)n2)cn1 registered its pKi at > 7.00
